Just for reference, patent US20170355774A1 is where these values come from.

- Study system: T1, human GITR (amino acids M1-V241, NCBI Accession #NP_004186.1) expressed on cells (human, UniProt Q9Y5U5 26-241)
- T1 sequence: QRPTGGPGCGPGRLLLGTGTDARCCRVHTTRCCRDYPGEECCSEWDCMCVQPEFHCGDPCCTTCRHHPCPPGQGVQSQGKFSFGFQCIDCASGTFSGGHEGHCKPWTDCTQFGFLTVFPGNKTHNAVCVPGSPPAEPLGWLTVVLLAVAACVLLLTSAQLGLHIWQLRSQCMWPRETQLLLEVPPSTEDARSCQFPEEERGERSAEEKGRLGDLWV
- Test: cell-based or functional assay
The binders listed here are annotated with their IC50, blocking of hGITRL stimulation, NF-kB-Luc, non-anchored.
Numbers only; they are read as nM.

Some solved entries appear below for comparison.
Exercise: # get_value(readout='IC50, blocking of hGITRL stimulation, NF-kB-Luc, non-anchored', item= H1H14512P (antibody, human IgG1, V domains shown, human IgG1 (H1H)) VH: QVQLVESGGGVVQPGRSLRLSCAVSGFTLSSYGMDWVRQAPGKGLEWVAVIWYDGSNKYYSDSVKGRFTISRDNSKNTLFLQMNSLRADDTAVYYCARDGELGLDYYSGMDVWGQGTTVTVSS VL: DIQMTQSPSSLSASVGDRVTITCRASQDIRNDLGWYQQKPGKAPKRLIYGASSLQSGVPSRFSGSGSGTEFTLTISSLQPEDFATYYCLQLNSYPRTFGQGTKVEIK )
Solution: 0.7

Exercise: Now try H1H14524P (antibody, human IgG1, V domains shown, human IgG1 (H1H)) VH: QVQLVESGGGVAQPGRSLSLSCAASGFTFSDYGMHWVRQAPGKGLEWVAVIWYAGSNKYYADSVKDRFTISRDNSKNTLYLQMRSLRVEDTAVYYCARGGELRLDYYSGLDVWGQGTTVTVSS VL: DIQMTQSPSSLSASVGDRVTVTCRASQGIRSDLGWYQQKPGKAPKRLIYAASSFQSGVPSRFSGSGSGTEFTLTISSLHPEDFATYYCLQSNNYPWTFGQGTKVEIK .
Solution: 0.7

Exercise: Now try H1H14523P (antibody, human IgG1, V domains shown, human IgG1 (H1H)) VH: QVQLVESGGGVVQPGRSLRLSCEASGFTFSSYGMHWVRQAPGKGLEWVAVIWYSESNKYYTDSMKGRLTISRDNSKNTLYLQMNSLRAEDTAVYYCARGGLLGKYYYYGMDVWGQGTTVTVSS VL: DIQMTQSPSSLSASVGDRVIITCRASQDIRNDLGWYQQKPGKAPKRLIYAASSLQSGVPSRFSGSGSGTEFTLTISSLQPEDFATFYCLQLNSYPYTFGQGTKLEIK .
Solution: 0.9

Exercise: Now try H4H14521P (antibody, human IgG4, V domains shown, human IgG4 (H4H)) VH: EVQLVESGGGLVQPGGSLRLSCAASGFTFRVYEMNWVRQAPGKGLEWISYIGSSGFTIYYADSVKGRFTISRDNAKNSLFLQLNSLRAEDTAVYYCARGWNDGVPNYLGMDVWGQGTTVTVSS VL: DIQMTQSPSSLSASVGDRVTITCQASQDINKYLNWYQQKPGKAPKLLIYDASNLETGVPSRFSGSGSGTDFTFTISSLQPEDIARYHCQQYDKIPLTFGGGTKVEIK .
Solution: 3.8

Let us move to another entry and its IC50, blocking of hGITRL stimulation, NF-kB-Luc, non-anchored.
Exercise: # get_value(readout='IC50, blocking of hGITRL stimulation, NF-kB-Luc, non-anchored', item= H1H14520P (antibody, human IgG1, V domains shown, human IgG1 (H1H)) VH: QVQLVESGGGVVQPGRSLRLSCAASGFTFSSFGMHWVRQAPGKGLEWVAVISYDGRNRYYADSVKGRFTISRDNSKNTLYLQMNSLSAEDTAMFYCAKDGFGNSFDYWGQGTLVTVSS VL: DVVMTQSPLSLPVTLGQPASISCRSSQSLLYSDGNTYLTWFQQRPGQSPRRLIYKVSNRDSGVPDRFSGSGSGTDFTLTISRVEAEDVGIYYCMQGTHWPWTFGQGTKVEIK )
Solution: 0.9
